- Test system: SEM cells
- protocol.description: cell viability relative to DMSO control; higher = less cytotoxic
- assay.conditions: RPMI 5 mM glucose + 10% dialyzed FBS; 48 h; 0.00234 µM
endpoint.name: cell viability
# output: number + unit

Note to self: cell viability of CN(C)CC[C@H](CSc1ccccc1)Nc1ccc([S+](=O)([O-])NC(=O)c2ccc(N3CCN(Cc4ccccc4-c4ccc(Cl)cc4)CC3)cc2)cc1[N+](=O)[O-] with SEM cells was 91.3%

Form field, cell viability with SEM cells, item CCCc1nc2c(C)cc(-c3nc4ccccc4n3C)cc2n1Cc1ccc(-c2ccccc2C(=O)O)cc1 : 138%

The reported SEM cells cell viability of CN1/C=C(\N=C(NC2=CC=C(C=C2)C(=O)N3CCOCC3)/C1=O)/C4=C(C)C(=CC=C4)NC(=O)C5=CC=C(C=C5)C(C)(C)C is 108%

Assay SEM cells, sample CCCNCC(O)COc1ccccc1C(=O)CCc1ccccc1 (centres undefined) , cell viability read: 85.1%

----------
- Tested on: NOMO1
- protocol.description: cell viability relative to DMSO control; higher = less cytotoxic
- assay.conditions: RPMI 5 mM glucose + 10% FBS; 48 h; 5.12 µM
Reported cell viability is given for each of the following molecules.
Please reply with the bare figure in % and do not write the unit itself.

Some solved entries appear below for comparison.
INSERT INTO assay_data (query_smiles, endpoint_name, observed_value) VALUES
  ('CCCC(CCC)C(=O)[O-]', 'cell viability', 111),
  ('CC1(C)Cc2c(sc(NC(=S)NC(=O)c3ccccc3)c2C(=O)O)CO1', 'cell viability', 115),
  ('CN(CCOc1ccc(NS(C)(=O)=O)cc1)CCc1ccc(NS(C)(=O)=O)cc1', 'cell viability', 141);

Quick note, cell viability for CN(C)CC[C@H](CSc1ccccc1)Nc1ccc([S+](=O)([O-])NC(=O)c2ccc(N3CCN(Cc4ccccc4-c4ccc(Cl)cc4)CC3)cc2)cc1[N+](=O)[O-] landed at 50.8

cell viability measured on C[C@H]1[C@H](O)O[C@@H]2O[C@@]3(C)CC[C@H]4[C@H](C)CC[C@@H]1[C@@]24OO3 = 14.9

The recorded cell viability for CCCc1nc2c(C)cc(-c3nc4ccccc4n3C)cc2n1Cc1ccc(-c2ccccc2C(=O)O)cc1 is 150

Lab note: CCc1c(O)cc(O)c(C(=O)c2ccc(OCCN3CCOCC3)c(OC)c2)c1CC(=O)N(CCOC)CCOC gave cell viability of 21.6

Per the records, this molecule ( OC1=CC2=C(C(=O)\C=C(/O2)C3=CC=CC=C3)C(=C1O)O ) has cell viability equal to 84

----------
- Test system: P12-Ichikawa
- protocol.description: cell viability relative to DMSO control; higher = less cytotoxic
- assay.conditions: RPMI 5 mM glucose + 10% FBS; 48 h; 0.000781 µM
Lab note: compare cell viability with 90%, writing Satisfied if less and Not satisfied if equal or more.

Solved cases (8 shown):
INSERT INTO results (molecule, assigned_category) VALUES
  ('COc1ccc2c(OCc3nnc4ccc(-c5ccccc5)nn34)ccnc2c1', 'Not satisfied'),
  ('C[N+](C)(C)CC(=O)O.[Cl-]', 'Satisfied'),
  ('O=P1(N(CCCl)CCCl)NCCCO1 (centres undefined)', 'Not satisfied'),
  ('CCN1\C=C(C(O)=O)/C(=O)C2=C1C=C(N3CCN(C)CC3)C(=C2)F', 'Not satisfied'),
  ('CN[C@H]1[C@H](O[C@@H]2[C@H](O[C@@H]3[C@@H](O)[C@@H](O)[C@@H](NC(=N)N)[C@@H](O)[C@H]3NC(=N)N)O[C@H](C)[C@@]2(O)C=O)O[C@@H](CO)[C@@H](O)[C@H]1O', 'Not satisfied'),
  ('CC[C@H](NC(C)C)[C@H](O)c1ccc(O)c2[nH]c(=O)ccc12', 'Not satisfied'),
  ('CN(C)CC[C@H](CSc1ccccc1)Nc1ccc([S+](=O)([O-])NC(=O)c2ccc(N3CCN(Cc4ccccc4-c4ccc(Cl)cc4)CC3)cc2)cc1[N+](=O)[O-]', 'Not satisfied'),
  ('COc1ccc(CC2c3cc(OC)c(OC)cc3CC[N+]2(C)CCC(=O)OCCCCCOC(=O)CC[N+]2(C)CCc3cc(OC)c(OC)cc3C2Cc2ccc(OC)c(OC)c2)cc1OC (centres undefined)', 'Satisfied');

Query string: Record CCCC1=N[N](C)C2=C1\N=C(/NC2=O)C3=CC(=CC=C3OCC)[S+]([O-])(=O)N4CCN(C)CC4 : is its cell viability strictly below 90%?
Result string: Satisfied

Query string: Quick check: cell viability of CN1CCN(Cc2ccc(NC(=O)Nc3ccc(Oc4cc(NC(=O)C5CC5)ncn4)cc3)cc2C(F)(F)F)CC1 under 90%?
Result string: Not satisfied

Query string: Confirm or reject: cell viability of O=C(O)CCNc1cc(N2CCc3ccccc3CC2)nc(-c2ccccn2)n1 lies strictly below 90%
Result string: Not satisfied

Query string: hey, is cell viability for Cn1cnc(-c2cc3nccc(Oc4ccc(NC(=S)NC(=O)Cc5ccccc5)cc4F)c3s2)c1 lower than 90% or not?
Result string: Satisfied

----------
- System: SEM cells
- protocol.description: cell viability relative to DMSO control; higher = less cytotoxic
- assay.conditions: HPLM + 10% dialyzed FBS; 48 h; 46.1 µM
# strict inequality: cell viability < 90% yields 1 (yes), everything else yields 0 (no)

Here are 3 compounds together with their reported answers.
INSERT INTO assay_data (query_smiles, target_or_test_system, assigned_category) VALUES
  ('CCc1c(O)cc(O)c(C(=O)c2ccc(OCCN3CCOCC3)c(OC)c2)c1CC(=O)N(CCOC)CCOC', 'SEM cells', '1 (yes)'),
  ('O=[N+]([O-])c1ccc(Nc2ccccc2-c2ccccc2)c2nonc12', 'SEM cells', '1 (yes)'),
  ('NC/1=N/C(=O)N(C[C@@H](CO)OC[P](O)(O)=O)/C=C1', 'SEM cells', '0 (no)');

Query string: Quick check: does Cc1cc(-c2nnc3n2CCCCC3)c(C)n1-c1ccccc1 have cell viability under 90%?
Result string: 0 (no)

Query string: Does the reported cell viability of FC(F)(F)C1=CC=C2C(SCCCCCO\C3=C\O\C(CN4CCOCC4)=C/C3=O)=CC=NC2=C1 stay below 90%?
Result string: 0 (no)

Query string: Does the reported cell viability of CCc1ccc(C(=O)Nc2cc(CN3CCN(C)CC3)cc(C(F)(F)F)c2)cc1C#Cc1cnc2ccnn2c1 stay below 90%?
Result string: 1 (yes)

----------
Consider the following molecules and their measured cell viability readings.
- System: SEM cells
- protocol.description: cell viability relative to DMSO control; higher = less cytotoxic
- assay.conditions: RPMI 5 mM glucose + 10% FBS; 48 h; 46.1 µM
Give a bare numeral; the unit % is implied.

INSERT INTO assay_data (molecule, unit_descriptor, observed_value) VALUES
  ('CC(C[N+](C)(C)C)OC(N)=O (stereo not drawn)', '%', 109),
  ('C[C@H]1C[C@H]2[C@@H]3CCC4=CC(=O)C=C[C@]4(C)[C@H]3C(=O)C[C@]2(C)[C@@]1(O)C(=O)CO', '%', 7.21),
  ('O=C(c1ccc(/C=C/c2n[nH]c3ccccc23)cc1)N1CCNCC1', '%', 13.3),
  ('CCOc1cc(/C=C2/C(=O)N(c3ccccc3)N=C2C)cc(Cl)c1OCC(=O)OC', '%', 58.6),
  ('CN[C@H]1[C@H](O[C@@H]2[C@H](O[C@@H]3[C@@H](O)[C@@H](O)[C@@H](NC(=N)N)[C@@H](O)[C@H]3NC(=N)N)O[C@H](C)[C@@]2(O)C=O)O[C@@H](CO)[C@@H](O)[C@H]1O', '%', 99.3),
  ('CNC(=O)c1ccc(N2C(=S)N(c3ccc(C#N)c(C(F)(F)F)c3)C(=O)C2(C)C)cc1F', '%', 64.1),
  ('O=C(C1CC1)N1CC[C@@H](Cn2c(-c3ccc(-c4ccc5occc5c4)cc3)nc3cnccc32)C1', '%', 85.9);

Attention now turns to another entry.
Just so you know, measured cell viability for Cc1cccc(N(C)C(=S)Oc2ccc3ccccc3c2)c1 came out at 85

----------
AUC of viability dose-response curve: recorded values
- Test system: NOMO1
- protocol.description: AUC of viability dose-response curve (% viability x log10 dose units); higher = less sensitive
- assay.conditions: RPMI 5 mM glucose + 10% FBS; 48 h
Please reply with the number alone, leaving off any unit.

Example entries begin here.
INSERT INTO results (molecule, observed_value) VALUES
  ('O=C(/C=C/C=C/c1ccc2c(c1)OCO2)N1CCCCC1', 444),
  ('N#CC1(c2ccc(NC(=O)c3cccnc3NCc3ccncc3)cc2)CCCC1', 475),
  ('OCCNC1CCCc2c1[nH]c1ccc(-c3ccccc3)cc21 (stereo not given)', 454),
  ('NC1CCC(Nc2nc(Nc3ccc(C(=O)N4CCCCC4)cc3)c3ncn(-c4cccc(F)c4)c3n2)CC1 (stereo not given)', 457);

Turning now to a further molecule:
For record COc1cccc(Nc2c(C(N)=O)cnc3c(C)cc([S+](=O)([O-])c4cccc(C(=O)N(C)C)c4)cc23)c1 the listed AUC of viability dose-response curve is 472
